Taken from patent US20250026849A1.

biological target: T1, HER2 (human, UniProt P04626 23-652); experiment: ELISA, format not described; set-up: unit not given here
T1 construct: The ELISA is not described; also called ERBB2; CD340
Reported values of ELISA_avg for individual entries

BINDER	ELISA_avg
HER2-binding D domain SEQ ID NO: 823 (designed binder) MGSWSEFWFRLHAILYRLQALGGSEAELAAFEKEIAAFESELQAYKGKGNPEVETLRDAAAEIRVALQAYRHN	14.8
HER2-binding D domain SEQ ID NO: 820 (designed binder) MGSWFEFEIRLRAIEYRLSALGGSEAELAAFEKEIAAFESELQAYKGKGNPEVEKLRELAAEIRYALQAYRHN	7.75
HER2-binding D domain SEQ ID NO: 835 (designed binder) MGSWYEFDIRLEAIKYRLSALGGSEAELAAFEKEIAAFESELQAYKGKGNPEVEYLRKKAAVIRSMLQAYRHN	5.35
